Taken from patent US9872861B2.

Measured pKi by item
Target: Bcl-w (Homo sapiens)
Sequence (Q92843 1-193): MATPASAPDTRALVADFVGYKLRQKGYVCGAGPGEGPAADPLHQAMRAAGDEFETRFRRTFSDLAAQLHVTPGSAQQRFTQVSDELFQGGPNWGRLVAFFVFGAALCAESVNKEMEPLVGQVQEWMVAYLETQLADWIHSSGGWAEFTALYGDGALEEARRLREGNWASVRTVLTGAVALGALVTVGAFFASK
pKi: −log10 of the molar value.
Parameter measured: pKi

>>> test_value("CC1(C)CCC(c2ccc(Cl)cc2)=C(CN2CCN(c3ccc(C(=O)NS(=O)(=O)c4ccc(N[C@H](CCN5CCOCC5)CSc5ccccc5)c(S(=O)(=O)C(F)(F)F)c4)cc3)CC2)C1 [Compound 2, reference compound]")
8.15
>>> test_value("CC1(C)CCC(CN2CCN(c3ccc(C(=O)NS(=O)(=O)c4ccc(N[C@H]5CC[C@H](N6CCOCC6)CC5)c([N+](=O)[O-])c4)c(Oc4cnc(N)c(Cl)c4)c3)CC2)=C(c2ccc(Cl)cc2)C1 [Compound 17]")
6.45
>>> test_value("CC1(C)CCC(CN2CCN(c3ccc(C(=O)NS(=O)(=O)c4ccc(NC[C@H]5CC[C@](C)(O)CC5)c([N+](=O)[O-])c4)c(Oc4cnc5[nH]ccc5c4)c3)CC2)=C(c2ccc(Cl)cc2)C1 [Compound 9]")
6.64
